Test system: Lectin Pathway
Assay Details: Lectin Pathway Activation Assay in Human Serum (mannan-coated ELISA, C3c detection)
Type: biochemical
Condition Details: 1% human serum, mannan-coated plate
Property Name: IC50

Reference set, count: 10
Smiles Entry: Cc1nc(N)ccc1CNC(=O)[C@H](C)NC(=O)[C@H]1C[C@@H](c2ccccc2)CCN1CC(=O)O
Tgt: Lectin Pathway
Property Name: IC50
Assay Result: 50 to 500 nM
--
Smiles Entry: Cc1nc(N)ccc1CNC(=O)[C@H](C)NC(=O)[C@@H](CCc1ccccc1)NCc1ccc(C(=O)N2CCOCC2)cc1
Tgt: Lectin Pathway
Property Name: IC50
Assay Result: 500 to 5000 nM
--
Smiles Entry: C[C@H](NC(=O)[C@H]1C[C@H](Cc2ccccc2-c2ccccc2)CN1)C(=O)NCc1cnc2[nH]cc(Cl)c2c1
Tgt: Lectin Pathway
Property Name: IC50
Assay Result: 50 to 500 nM
--
Smiles Entry: Cc1nc(N)ccc1CNC(=O)[C@H](C)NC(=O)[C@H]1C[C@H](Cc2cc(-c3ccccc3)cs2)CN1
Tgt: Lectin Pathway
Property Name: IC50
Assay Result: 50 to 500 nM
--
Smiles Entry: Cc1cc(Cl)cc(CNC(=O)[C@H](C)NC(=O)[C@H]2C[C@@H](c3ccccc3)CCN2)c1O
Tgt: Lectin Pathway
Property Name: IC50
Assay Result: < 50 nM
--
Smiles Entry: CCCCCN[C@H](CCc1ccccc1)C(=O)N[C@@H](C)C(=O)NCc1ccc(N)nc1C
Tgt: Lectin Pathway
Property Name: IC50
Assay Result: 50 to 500 nM
--
Smiles Entry: Cc1nc(N)ccc1CNC(=O)[C@H](C)NC(=O)[C@H]1C[C@@H](c2ccccc2)CCN1CCC(=O)O
Tgt: Lectin Pathway
Property Name: IC50
Assay Result: 50 to 500 nM
--
Smiles Entry: Cc1nc(N)ccc1CNC(=O)[C@H](C)NC(=O)[C@H]1C[C@H](Cc2ccc(N3CCCC3=O)cc2)CN1
Tgt: Lectin Pathway
Property Name: IC50
Assay Result: 500 to 5000 nM
--
Smiles Entry: C[C@H](NC(=O)[C@H]1C[C@H](Cc2ccc3ccccc3c2)CN1)C(=O)NCc1cc(Cl)ccc1-n1cnnn1
Tgt: Lectin Pathway
Property Name: IC50
Assay Result: 50 to 500 nM
--
Smiles Entry: Cc1nc(N)ccc1CNC(=O)[C@H](C)NC(=O)[C@H]1C[C@H](Cc2ccccc2-c2ccc(Cl)s2)CN1
Tgt: Lectin Pathway
Property Name: IC50
Assay Result: 500 to 5000 nM

### Prompt Which IC50 value belongs to CC(=O)Nc1ccc(CCN[C@H](CCc2ccccc2)C(=O)N[C@@H](C)C(=O)NCc2ccc(N)nc2C)cc1 ?
### Response 50 to 500 nM

### Prompt What about C[C@H](NC(=O)[C@H]1C[C@H](c2ccccc2)CN1)C(=O)NCc1cnc2c(c1)c(Cl)cn2C ?
### Response 500 to 5000 nM

### Prompt What about C[C@H](NC(=O)[C@H]1C[C@@H](c2ccccc2)CCN1)C(=O)NCc1cc(Cl)ccc1-n1cnnn1 ?
### Response < 50 nM

### Prompt What about Cc1nc(N)ccc1CNC(=O)[C@H](C)NC(=O)[C@H]1C[C@H](Cc2ccc(C3CCC3)cc2)CN1 ?
### Response 500 to 5000 nM

----------
Ki by entry:
Tgt: UniProtKB O00187
Sequence (O00187 445-686): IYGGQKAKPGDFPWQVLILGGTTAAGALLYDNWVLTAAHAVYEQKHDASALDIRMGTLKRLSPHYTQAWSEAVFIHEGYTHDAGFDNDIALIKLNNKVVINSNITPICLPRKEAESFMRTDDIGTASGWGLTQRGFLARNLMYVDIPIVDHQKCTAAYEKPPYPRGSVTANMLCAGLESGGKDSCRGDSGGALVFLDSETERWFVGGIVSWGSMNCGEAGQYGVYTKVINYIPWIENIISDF
Sequence (O00187 298-444): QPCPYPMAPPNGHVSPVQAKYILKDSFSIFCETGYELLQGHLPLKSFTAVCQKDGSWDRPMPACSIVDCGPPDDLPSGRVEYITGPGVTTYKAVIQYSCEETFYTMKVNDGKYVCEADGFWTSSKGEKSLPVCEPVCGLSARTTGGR
Assay Details: Enzymatic Assay for MASP-2 (fluorogenic substrate)
Assay type: biochemical
Where a name gives a salt, the structure may show the parent alone.

Reference set, count: 4
Compound: Cc1nc(N)ccc1CNC(=O)[C@H](CCC(N)=O)NC(=O)[C@H](N)CCc1ccccc1
Assay Result: 500 to 2500 nM
//
Compound: C[C@H](OC(=O)[C@H](N)CCc1ccccc1)C(=O)NCc1ccc(C(=N)N)cc1 [compound 1315, Hydrochloride]
Assay Result: 500 to 2500 nM
//
Compound: C[C@H](NC(=O)[C@@H](CCc1ccccc1)NCc1ccc(C(=O)N2CCOCC2)cc1)C(=O)NCc1ccc(C(=N)N)cc1
Assay Result: < 500 nM
//
Compound: C[C@H](NC(=O)[C@H](N)CCc1ccccc1)C(=O)NCc1cc(Cl)ccc1C#N [compound 1313, Trifluoroacetate salt]
Assay Result: 2500 to 10000 nM

Now examine the next entry.
### Prompt Which Ki value belongs to C[C@H](NC(=O)[C@H](N)CCc1ccccc1)C(=O)NCc1ccc2c(N)ncnc2c1 [compound 1060, Dihydrochloride] ?
### Response < 2500 nM

----------
Tested on: Lectin Pathway
Assay Details: Lectin Pathway Activation Assay in Human Serum (mannan-coated ELISA, C3c detection)
Assay type: biochemical
Condition Details: 1% human serum, mannan-coated plate
pIC50: −log10 of the molar value.
Property Name: pIC50

Reference set, count: 2
Compound: Cc1nc(N)ccc1CNC(=O)[C@H](C)NC(=O)[C@H]1C[C@H](Cc2cccc(-c3ccccc3)c2)CN1 [compound 1406]
pIC50: 6.30 to 7.30
//
Compound: Cc1nc(N)ccc1CNC(=O)[C@H](C)NC(=O)[C@H]1C[C@H](Cc2ccc(-c3cccnc3)cc2)CN1 [compound 1357]
pIC50: > 7.30

Now examine the next entry.
### Prompt Give the reported pIC50 for Cc1nc(N)ccc1CNC(=O)[C@H](C)NC(=O)[C@H]1C[C@H](Cc2cccc(C(=O)N3CCC3)c2)CN1 [compound 1420] (system: Lectin Pathway).
### Response 6.30 to 7.30
